- assay.comment: Selectivity index, ratio of IC50 for rat L6 cells to IC50 for Trypanosoma brucei rhodesiense STIB900 trypomastigotes
- Type: toxicity, cell-based
- particulars: read-out: Ratio IC50
observed.property: selectivity ratio

- CC(C)Oc1cc(NC(=N)c2ncc[nH]2)ccc1-c1ccc(-c2ccc(NC(=N)c3ncc[nH]3)cc2OC(C)C)o1: 26.7
- CC(=O)N(C)c1nc(C(=N)Nc2ccc(-c3ccc(-c4ccc(NC(=N)c5csc(N(C)C(C)=O)n5)cc4OC(C)C)o3)c(OC(C)C)c2)cs1: 10.3
- CC(C)Oc1cc(NC(=N)c2ccc[nH]2)ccc1-c1ccc(-c2ccc(NC(=N)c3ccc[nH]3)cc2OC(C)C)o1: 8.69
- CC(C)Oc1cc(NC(=N)c2ccn(C)n2)ccc1-c1ccc(-c2ccc(NC(=N)c3ccn(C)n3)cc2OC(C)C)o1: 3.21
- CNc1nc(C(=N)Nc2ccc(-c3ccc(-c4ccc(NC(=N)c5csc(NC)n5)cc4OC(C)C)o3)c(OC(C)C)c2)cs1: 8.69
